Reported relative viability values follow for various compounds
# Test system: SK-MES-1
# Test Summary: relative viability (nuclei count vs DMSO), 5 days (fraction); higher = more cells survive
# Condition Summary: first compound 2 µM
Quantity Kind: relative viability

- Compound: "Cc1csc(=NC2CCCCC2)n1/N=C/c1ccc(O)c(O)c1O [MIM1] + CS(=O)(=O)CCNCc1ccc(-c2ccc3ncnc(Nc4ccc(OCc5cccc(F)c5)c(Cl)c4)c3c2)o1 [Lapatinib] (partner 2 µM)"
  Reported Result: 0.504
- Compound: "Cc1csc(=NC2CCCCC2)n1/N=C/c1ccc(O)c(O)c1O [MIM1] + CC(=O)Nc1cccc(-n2c(=O)n(C3CC3)c(=O)c3c(Nc4ccc(I)cc4F)n(C)c(=O)c(C)c32)c1 [Trametinib] (partner 0.02 µM)"
  Reported Result: 0.58
- Compound: "CN1CCN(CCOc2cc(OC3CCOCC3)c3c(Nc4c(Cl)ccc5c4OCO5)ncnc3c2)CC1 [Saracatinib] + Nc1nc2[nH]cc(CCc3ccc(C(=O)N[C@@H](CCC(=O)O)C(=O)O)cc3)c2c(=O)[nH]1 [Pemetrexed] (partner 0.2 µM)"
  Reported Result: 0.466
- Compound: "Cc1csc(=NC2CCCCC2)n1/N=C/c1ccc(O)c(O)c1O [MIM1] + N=C(N)NC(=N)NCCc1ccccc1 [Phenformin] (partner 250 µM)"
  Reported Result: 0.617
- Compound: "CN1CCN(CCOc2cc(OC3CCOCC3)c3c(Nc4c(Cl)ccc5c4OCO5)ncnc3c2)CC1 [Saracatinib] + CS(=O)(=O)CCNCc1ccc(-c2ccc3ncnc(Nc4ccc(OCc5cccc(F)c5)c(Cl)c4)c3c2)o1 [Lapatinib] (partner 2 µM)"
  Reported Result: 0.41
- Compound: "CN1CCN(CCOc2cc(OC3CCOCC3)c3c(Nc4c(Cl)ccc5c4OCO5)ncnc3c2)CC1 [Saracatinib] + O=C(c1cc(Cc2n[nH]c(=O)c3ccccc23)ccc1F)N1CCN(C(=O)C2CC2)CC1 [Olaparib] (partner 8 µM)"
  Reported Result: 0.299
- Compound: "Cc1csc(=NC2CCCCC2)n1/N=C/c1ccc(O)c(O)c1O [MIM1] + CS(=O)(=O)N1CCN(Cc2cc3nc(-c4cccc5[nH]ncc45)nc(N4CCOCC4)c3s2)CC1 [Pictilisib] (partner 1 µM)"
  Reported Result: 0.388
- Compound: "CN1CCN(CCOc2cc(OC3CCOCC3)c3c(Nc4c(Cl)ccc5c4OCO5)ncnc3c2)CC1 [Saracatinib] + CC(=O)c1c(C)c2cnc(Nc3ccc(N4CCNCC4)cn3)nc2n(C2CCCC2)c1=O [Palbociclib] (partner 0.5 µM)"
  Reported Result: 0.256
- Compound: "CN1CCN(CCOc2cc(OC3CCOCC3)c3c(Nc4c(Cl)ccc5c4OCO5)ncnc3c2)CC1 [Saracatinib] + Cc1nc(NC(=O)N2CCC[C@H]2C(N)=O)sc1-c1ccnc(C(C)(C)C(F)(F)F)c1 [Alpelisib] (partner 2 µM)"
  Reported Result: 0.644
- Compound: "Cc1csc(=NC2CCCCC2)n1/N=C/c1ccc(O)c(O)c1O [MIM1] + O=C(c1cc(Cc2n[nH]c(=O)c3ccccc23)ccc1F)N1CCN(C(=O)C2CC2)CC1 [Olaparib] (partner 8 µM)"
  Reported Result: 0.548

----------
Quick list: relative viability per entry.
# Test system: HCC-827
# Test Summary: relative viability (nuclei count vs DMSO), 5 days (fraction); higher = more cells survive
# Condition Summary: first compound 8 µM

- Compound: "Nc1cccc2c1CN(C1CCC(=O)NC1=O)C2=O (centres undefined) [Lenalidomide] + CC(=O)c1c(C)c2cnc(Nc3ccc(N4CCNCC4)cn3)nc2n(C2CCCC2)c1=O [Palbociclib] (partner 0.5 µM)"
  relative viability: 0.489
- Compound: "Nc1cccc2c1CN(C1CCC(=O)NC1=O)C2=O (centres undefined) [Lenalidomide] + Cc1nc(Nc2ncc(C(=O)Nc3c(C)cccc3Cl)s2)cc(N2CCN(CCO)CC2)n1 [Dasatinib] (partner 0.075 µM)"
  relative viability: 0.312
- Compound: "Nc1cccc2c1CN(C1CCC(=O)NC1=O)C2=O (centres undefined) [Lenalidomide] + CC1(C)CCC(c2ccc(Cl)cc2)=C(CN2CCN(c3ccc(C(=O)NS(=O)(=O)c4ccc(N[C@H](CCN5CCOCC5)CSc5ccccc5)c(S(=O)(=O)C(F)(F)F)c4)cc3)CC2)C1 [Navitoclax] (partner 0.5 µM)"
  relative viability: 1.07
- Compound: "Nc1cccc2c1CN(C1CCC(=O)NC1=O)C2=O (centres undefined) [Lenalidomide] + CCNC(=O)c1noc(-c2cc(C(C)C)c(O)cc2O)c1-c1ccc(CN2CCOCC2)cc1 [Luminespib] (partner 0.01 µM)"
  relative viability: 0.59

----------
Item-by-item account of relative viability
# System: SW 900
# Test Summary: relative viability (nuclei count vs DMSO), 5 days (fraction); higher = more cells survive
# Condition Summary: first compound 0.03162 µM
Quantity Kind: relative viability

- Compound: "Cc1cn(-c2cc(NC(=O)c3ccc(C)c(Nc4nccc(-c5cccnc5)n4)c3)cc(C(F)(F)F)c2)cn1 [Nilotinib] + O=C(CCCCCCC(=O)Nc1ccccc1)NO [Vorinostat] (partner 1 µM)"
  Quantity Kind: "relative viability"
  Reported Result: 0.216
- Compound: "Cc1cn(-c2cc(NC(=O)c3ccc(C)c(Nc4nccc(-c5cccnc5)n4)c3)cc(C(F)(F)F)c2)cn1 [Nilotinib] + COc1cc2c(Oc3ccc(NC(=O)C4(C(=O)Nc5ccc(F)cc5)CC4)cc3F)ccnc2cc1OCCCN1CCOCC1 [Foretinib] (partner 0.25 µM)"
  Quantity Kind: "relative viability"
  Reported Result: 0.639
- Compound: "Cc1cn(-c2cc(NC(=O)c3ccc(C)c(Nc4nccc(-c5cccnc5)n4)c3)cc(C(F)(F)F)c2)cn1 [Nilotinib] + CCNC(=O)c1noc(-c2cc(C(C)C)c(O)cc2O)c1-c1ccc(CN2CCOCC2)cc1 [Luminespib] (partner 0.01 µM)"
  Quantity Kind: "relative viability"
  Reported Result: 0.186
- Compound: "Cc1cn(-c2cc(NC(=O)c3ccc(C)c(Nc4nccc(-c5cccnc5)n4)c3)cc(C(F)(F)F)c2)cn1 [Nilotinib] + Nc1ncn([C@H]2C[C@H](O)[C@@H](CO)O2)c(=O)n1 [Decitabine] (partner 2 µM)"
  Quantity Kind: "relative viability"
  Reported Result: 0.743

----------
Property: relative viability; scope: individual compounds
# Tested on: NCI-H2085
# Test Summary: relative viability (nuclei count vs DMSO), 5 days (fraction); higher = more cells survive
# Condition Summary: first compound 0.2 µM

- Compound: "Cc1csc(=NC2CCCCC2)n1/N=C/c1ccc(O)c(O)c1O [MIM1] + Cc1nc(NC(=O)N2CCC[C@H]2C(N)=O)sc1-c1ccnc(C(C)(C)C(F)(F)F)c1 [Alpelisib] (partner 2 µM)"
  Target Of Assay: "NCI-H2085"
  relative viability: 0.946
- Compound: "CCNC(=O)c1noc(-c2cc(C(C)C)c(O)cc2O)c1-c1ccc(CN2CCOCC2)cc1 [Luminespib] + CS(=O)(=O)CCNCc1ccc(-c2ccc3ncnc(Nc4ccc(OCc5cccc(F)c5)c(Cl)c4)c3c2)o1 [Lapatinib] (partner 2 µM)"
  Target Of Assay: "NCI-H2085"
  relative viability: 0.284
- Compound: "CN1CCN(CCOc2cc(OC3CCOCC3)c3c(Nc4c(Cl)ccc5c4OCO5)ncnc3c2)CC1 [Saracatinib] + COc1cccc2cc(-c3nc([C@H]4CC[C@H](C(=O)O)CC4)n4ncnc(N)c34)[nH]c12 [OSI-027] (partner 0.5 µM)"
  Target Of Assay: "NCI-H2085"
  relative viability: 0.723
- Compound: "CCNC(=O)c1noc(-c2cc(C(C)C)c(O)cc2O)c1-c1ccc(CN2CCOCC2)cc1 [Luminespib] + CC1(C)CCC(c2ccc(Cl)cc2)=C(CN2CCN(c3ccc(C(=O)NS(=O)(=O)c4ccc(N[C@H](CCN5CCOCC5)CSc5ccccc5)c(S(=O)(=O)C(F)(F)F)c4)cc3)CC2)C1 [Navitoclax] (partner 0.5 µM)"
  Target Of Assay: "NCI-H2085"
  relative viability: 0.503

----------
# System: NCI-H2087
# Test Summary: relative viability (nuclei count vs DMSO), 5 days (fraction); higher = more cells survive
# Condition Summary: first compound 2.53 µM
Attribute: relative viability
Quantity Kind: relative viability

- Compound: "Nc1cccc2c1CN(C1CCC(=O)NC1=O)C2=O (stereo not drawn) [Lenalidomide] + C[C@@H](Oc1cc(-c2cnn(C3CCNCC3)c2)cnc1N)c1c(Cl)ccc(F)c1Cl [Crizotinib] (partner 1 µM)"
  Quantity Kind: "relative viability"
  Reported Result: 0.539
- Compound: "Nc1cccc2c1CN(C1CCC(=O)NC1=O)C2=O (stereo not drawn) [Lenalidomide] + Cc1nc(Nc2ncc(C(=O)Nc3c(C)cccc3Cl)s2)cc(N2CCN(CCO)CC2)n1 [Dasatinib] (partner 0.075 µM)"
  Quantity Kind: "relative viability"
  Reported Result: 0.928
- Compound: "Nc1cccc2c1CN(C1CCC(=O)NC1=O)C2=O (stereo not drawn) [Lenalidomide] + Nc1ncn([C@H]2C[C@H](O)[C@@H](CO)O2)c(=O)n1 [Decitabine] (partner 2 µM)"
  Quantity Kind: "relative viability"
  Reported Result: 0.303
